Target: D2 receptor (Rattus norvegicus (Rat), UniProt P61169)
Sequence (P61169 whole entry): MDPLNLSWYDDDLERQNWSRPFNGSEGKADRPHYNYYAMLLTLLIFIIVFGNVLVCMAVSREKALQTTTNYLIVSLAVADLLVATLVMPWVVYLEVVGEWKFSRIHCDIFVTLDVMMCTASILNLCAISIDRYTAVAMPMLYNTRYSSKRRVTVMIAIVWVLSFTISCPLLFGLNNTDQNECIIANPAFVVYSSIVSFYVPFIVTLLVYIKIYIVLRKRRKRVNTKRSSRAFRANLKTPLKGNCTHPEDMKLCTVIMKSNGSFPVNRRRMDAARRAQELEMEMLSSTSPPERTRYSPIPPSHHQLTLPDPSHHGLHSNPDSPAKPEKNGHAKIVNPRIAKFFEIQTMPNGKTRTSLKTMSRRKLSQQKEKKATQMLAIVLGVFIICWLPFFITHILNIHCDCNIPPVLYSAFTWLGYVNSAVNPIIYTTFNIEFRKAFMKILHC
Assay: D2 receptor binding assay (3H-Spiperone, rat brain striatum membrane)
Conditions: read-out: D2 Inhibition %
quantity-name: inhibition at 10 µM (%)

>>> print(df.to_string())
                                         mol        quantity_name  observed
 0  Fc1ccc2c(C3CCN(CCCSc4nnc(-c5cccc6ccccc56)o4)CC3)noc2c1  inhibition at 10 µM      98.4
 1  c1ccc2c(N3CCN(CCCSc4nnc(-c5ccncc5)o4)CC3)nsc2c1  inhibition at 10 µM      88.1
 2  Fc1ccc2c(C3CCN(CCCSc4nnc(-c5ccccc5)o4)CC3)noc2c1  inhibition at 10 µM      77.5
 3  FC(F)(F)c1ccc(-c2nnc(SCCCN3CCN(c4nsc5ccccc45)CC3)o2)cc1  inhibition at 10 µM      80.6
 4  Fc1ccc2c(C3CCN(CCCSc4nnc(-c5ccc(Cl)cc5)o4)CC3)noc2c1  inhibition at 10 µM       104
 5  Clc1ccc(-c2nnc(SCCCN3CCN(c4nsc5ccccc45)CC3)o2)cc1  inhibition at 10 µM      92.7
 6  c1csc(-c2nnc(SCCCN3CCN(c4nsc5ccccc45)CC3)o2)c1  inhibition at 10 µM      47.8
 7  c1ccc2c(-c3nnc(SCCCN4CCN(c5nsc6ccccc56)CC4)o3)cccc2c1  inhibition at 10 µM      25.7
 8  c1ccc(-c2nnc(SCCCN3CCN(c4nsc5ccccc45)CC3)o2)cc1  inhibition at 10 µM      62.4
 9  COc1ccc(-c2nnc(SCCCN3CCC(c4noc5cc(F)ccc45)CC3)o2)cc1  inhibition at 10 µM       113
10  Fc1ccc2c(C3CCN(CCCSc4nnc(-c5ccc(C(F)(F)F)cc5)o4)CC3)noc2c1  inhibition at 10 µM       105
